target_or_test_system: T1, human c-Met ECD-Fc-Flis (human)
T1 construct: c-Met ECD fused to Fc with flag- and His-tag at the C-terminus; also called human c-Met extracellular domain (ECD)-Fc-Flis fusion; human c-Met-Flis-Fc ECD
T1 sequence (chain, as listed by the source): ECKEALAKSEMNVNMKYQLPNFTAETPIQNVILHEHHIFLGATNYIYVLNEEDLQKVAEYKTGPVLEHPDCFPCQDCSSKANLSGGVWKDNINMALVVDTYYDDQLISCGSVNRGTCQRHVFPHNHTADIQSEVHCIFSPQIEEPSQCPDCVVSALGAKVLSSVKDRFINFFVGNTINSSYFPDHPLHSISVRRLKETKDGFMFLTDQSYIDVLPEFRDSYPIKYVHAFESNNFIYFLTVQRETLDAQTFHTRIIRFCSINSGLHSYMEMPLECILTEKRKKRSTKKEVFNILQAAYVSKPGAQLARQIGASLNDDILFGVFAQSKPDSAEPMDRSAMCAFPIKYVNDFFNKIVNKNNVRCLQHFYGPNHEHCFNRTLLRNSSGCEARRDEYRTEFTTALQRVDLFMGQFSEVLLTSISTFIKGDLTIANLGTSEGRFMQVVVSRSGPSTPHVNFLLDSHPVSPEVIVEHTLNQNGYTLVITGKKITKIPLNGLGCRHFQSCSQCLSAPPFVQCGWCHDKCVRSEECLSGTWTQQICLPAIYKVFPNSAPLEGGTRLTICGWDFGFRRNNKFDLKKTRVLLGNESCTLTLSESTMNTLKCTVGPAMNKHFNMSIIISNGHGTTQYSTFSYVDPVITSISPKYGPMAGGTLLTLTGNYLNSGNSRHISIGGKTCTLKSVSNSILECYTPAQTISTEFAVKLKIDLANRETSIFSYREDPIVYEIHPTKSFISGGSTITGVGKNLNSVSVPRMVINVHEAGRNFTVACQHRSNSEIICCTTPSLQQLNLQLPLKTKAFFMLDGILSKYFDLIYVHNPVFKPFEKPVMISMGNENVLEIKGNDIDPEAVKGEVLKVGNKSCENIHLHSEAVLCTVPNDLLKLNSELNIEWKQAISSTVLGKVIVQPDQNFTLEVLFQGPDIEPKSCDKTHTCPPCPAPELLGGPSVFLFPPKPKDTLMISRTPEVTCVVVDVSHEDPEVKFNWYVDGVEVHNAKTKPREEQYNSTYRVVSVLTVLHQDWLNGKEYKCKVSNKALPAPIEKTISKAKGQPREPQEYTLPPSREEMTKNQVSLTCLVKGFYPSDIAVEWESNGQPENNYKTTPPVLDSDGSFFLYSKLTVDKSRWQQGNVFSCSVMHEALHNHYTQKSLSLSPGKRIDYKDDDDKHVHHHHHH
assay_explanation: HGF-blocking ELISA: HGF signal on coated c-Met ECD-Fc-Flis; Ab 1.91 ng/mL
property_label: AVG A450 nm (A450 nm)
Entry rule: numbers only, all in A450 nm.

[[record]]
binder = "D11-8B8 (antibody, human IgG2, kappa, V domains shown, Human engineered IgG2 kappa c-Met antibody; also called Mab D11-8B8; D11-8B8 IgG2) VH: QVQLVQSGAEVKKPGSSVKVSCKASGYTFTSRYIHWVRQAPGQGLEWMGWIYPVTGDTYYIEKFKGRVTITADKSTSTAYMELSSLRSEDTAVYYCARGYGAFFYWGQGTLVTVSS VL: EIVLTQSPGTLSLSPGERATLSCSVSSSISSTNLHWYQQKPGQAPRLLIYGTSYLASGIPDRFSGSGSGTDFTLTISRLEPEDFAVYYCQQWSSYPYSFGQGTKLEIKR"
property_label = "AVG A450 nm"
result_number = 2.48


Reported AVG A450 nm of D11-S17Y (antibody, human IgG2, kappa, V domains shown, Human engineered IgG2 kappa c-Met antibody; also called D11-S17Y IgG2) VH: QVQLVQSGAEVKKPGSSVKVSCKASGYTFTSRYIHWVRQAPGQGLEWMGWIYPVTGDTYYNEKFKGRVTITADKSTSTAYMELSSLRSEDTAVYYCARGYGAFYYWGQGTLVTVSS VL: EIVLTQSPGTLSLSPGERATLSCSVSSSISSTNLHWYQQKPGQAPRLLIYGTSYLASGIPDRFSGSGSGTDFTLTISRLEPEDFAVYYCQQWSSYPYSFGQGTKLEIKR : 1.98

Reported AVG A450 nm of D11-C27G3 (antibody, human IgG2, kappa, V domains shown, Human engineered IgG2 kappa c-Met antibody; also called D11-27G3; D11-C27G3 IgG2) VH: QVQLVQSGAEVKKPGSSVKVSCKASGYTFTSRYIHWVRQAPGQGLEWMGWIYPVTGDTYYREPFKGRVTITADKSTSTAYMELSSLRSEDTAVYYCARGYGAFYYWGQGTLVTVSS VL: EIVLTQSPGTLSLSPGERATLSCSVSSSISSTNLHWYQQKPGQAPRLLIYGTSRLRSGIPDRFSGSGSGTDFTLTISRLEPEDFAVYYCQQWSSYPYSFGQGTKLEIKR : 2.31
